assay: Chemical stability of the compound assessed as compound remaining after enzymatic degradation after 24 hrs; type: physicochemical; settings: read-out: Activity
Square brackets hold non-standard residues; d marks the D form. Peptide text beside a SMILES is read from it. NMeF = CN[C@@H](Cc1ccccc1)C(=O)O; NMeL = CN[C@@H](CC(C)C)C(=O)O; NMeV = CN[C@H](C(=O)O)C(C)C; NMeA = CN[C@@H](C)C(=O)O
Parameter: remaining at 24 h (%)

1. CC(=O)N[C@@H](CCCCN)C(=O)N[C@@H](CC(C)C)C(=O)N(C)[C@H](C(=O)N[C@@H](Cc1ccccc1)C(=O)N(C)[C@@H](Cc1ccccc1)C(=O)N[C@@H](C)C(N)=O)C(C)C (Ac-KL[NMeV]F[NMeF]A-NH2); 96
2. CC(=O)N[C@@H](CCCCN)C(=O)N(C)[C@@H](CC(C)C)C(=O)N(C)[C@H](C(=O)N(C)[C@@H](Cc1ccccc1)C(=O)N(C)[C@@H](Cc1ccccc1)C(=O)N(C)[C@@H](C)C(N)=O)C(C)C (Ac-K[NMeL][NMeV][NMeF][NMeF][NMeA]-NH2); 98

----------
assay: Chemical stability of the compound assessed as compound remaining after enzymatic degradation after 24 hrs; format: physicochemical; conditions: read-out: Activity
Square brackets hold non-standard residues; d marks the D form. Peptide text beside a SMILES is read from it. NMeF = CN[C@@H](Cc1ccccc1)C(=O)O; NMeI = CC[C@H](C)[C@H](NC)C(=O)O; NMeL = CN[C@@H](CC(C)C)C(=O)O; NMeV = CN[C@H](C(=O)O)C(C)C; NMeA = CN[C@@H](C)C(=O)O; Sar = CNCC(=O)O
Parameter: remaining at 24 h (%)

1) CC[C@H](C)[C@@H](C(=O)NCC(=O)N(C)[C@@H](CC(C)C)C(=O)N[C@@H](CCSC)C(=O)N(C)[C@H](C(=O)NCC(N)=O)C(C)C)N(C)C(C)=O (Ac-[NMeI]G[NMeL]M[NMeV]G-NH2); 94
2) CC(=O)N[C@@H](CCCCN)C(=O)N(C)[C@@H](CC(C)C)C(=O)N[C@H](C(=O)N(C)[C@@H](Cc1ccccc1)C(=O)N[C@@H](Cc1ccccc1)C(=O)N(C)[C@@H](C)C(N)=O)C(C)C (Ac-K[NMeL]V[NMeF]F[NMeA]-NH2); 94
3) CC[C@H](C)[C@H](NC(C)=O)C(=O)N(C)CC(=O)N[C@@H](CC(C)C)C(=O)N[C@@H](CCSC)C(=O)N[C@H](C(=O)N(C)CC(N)=O)C(C)C (Ac-I[Sar]LMV[Sar]-NH2); 60
4) CC[C@H](C)[C@@H](C(=O)N(C)CC(=O)N(C)[C@@H](CC(C)C)C(=O)N[C@@H](CCSC)C(=O)N(C)[C@H](C(=O)N(C)CC(N)=O)C(C)C)N(C)C(C)=O (Ac-[NMeI][Sar][NMeL]M[NMeV][Sar]-NH2); 100

----------
assay: Cytotoxicity against rat 2/4/A1 cells assessed as cell viability up to 200 uM after 4 hrs by MTT assay; assay type: cell-based; details: read-out: Activity
Below, each entry is listed with its recorded viability at 4 h.
Parameter: viability at 4 h

1. Ac-IGLMVG-NH2; 95%
2. Ac-KLVFFA-NH2; 95%

----------
test: Apparent permeability across rat 2/4/A1 cells in absence of pronase inhibitor; type: ADME, cell-based
Square brackets hold non-standard residues; d marks the D form. Peptide text beside a SMILES is read from it. NMeF = CN[C@@H](Cc1ccccc1)C(=O)O; NMeI = CC[C@H](C)[C@H](NC)C(=O)O; NMeL = CN[C@@H](CC(C)C)C(=O)O; NMeV = CN[C@H](C(=O)O)C(C)C; NMeA = CN[C@@H](C)C(=O)O; Sar = CNCC(=O)O
Below, each entry is listed with its recorded Papp.
Parameter: Papp (×10⁻⁶ cm/s)

1) CC[C@H](C)[C@H](NC(C)=O)C(=O)N(C)CC(=O)N[C@@H](CC(C)C)C(=O)N[C@@H](CCSC)C(=O)N[C@H](C(=O)N(C)CC(N)=O)C(C)C (Ac-I[Sar]LMV[Sar]-NH2); 2.2
2) CC[C@H](C)[C@@H](C(=O)N(C)CC(=O)N(C)[C@@H](CC(C)C)C(=O)N[C@@H](CCSC)C(=O)N(C)[C@H](C(=O)N(C)CC(N)=O)C(C)C)N(C)C(C)=O (Ac-[NMeI][Sar][NMeL]M[NMeV][Sar]-NH2); 1.4
3) CC[C@H](C)[C@@H](C(=O)NCC(=O)N(C)[C@@H](CC(C)C)C(=O)N[C@@H](CCSC)C(=O)N(C)[C@H](C(=O)NCC(N)=O)C(C)C)N(C)C(C)=O (Ac-[NMeI]G[NMeL]M[NMeV]G-NH2); 1.6
4) CC(=O)N[C@@H](CCCCN)C(=O)N(C)[C@@H](CC(C)C)C(=O)N(C)[C@H](C(=O)N(C)[C@@H](Cc1ccccc1)C(=O)N(C)[C@@H](Cc1ccccc1)C(=O)N(C)[C@@H](C)C(N)=O)C(C)C (Ac-K[NMeL][NMeV][NMeF][NMeF][NMeA]-NH2); 2.3
